molecular target: c-Myc template DNA (c-myc quadruplex); experiment: Quadruplex binding / stop assay (Taq polymerase arrest, capillary electrophoresis); conditions: read-out: Stop Data c-Myc μM; concentration at which 50% of the DNA was arrested (arrested:full-length 1:1)
endpoint label: IC50
Hi, when you answer, please include the unit after the number. Thanks!

[[record]]
compound = "CN1CCCC1CCNC(=O)c1cn2c3c(c(N4CC[C@@H](NC(=O)OC(C)(C)C)C4)c(F)cc3c1=O)Oc1cc3ccccc3cc1-2 (stereo partly drawn)"
recorded_measurement = "1.75 µM"

[[record]]
compound = "CN1CCN(CCCNc2c(F)cc3c(=O)c(C(=O)NCCCN4CCOCC4)cn4c3c2Oc2cc3c(cc2-4)oc2ccccc23)CC1"
recorded_measurement = "1.75 µM"


Below: the item to evaluate.
Field request: IC50 | item: CC(C)(C)OC(=O)NC1CCN(c2c(F)c(N)c3c(=O)c(C(=O)NCCN4CCCC4)cn4c3c2Oc2cc3ccccc3cc2-4)C1 (stereo not drawn)
1.75 µM

---

experiment: Pharmacokinetic/toxicokinetic evaluation in dogs; assay type: in vivo, beagle dogs; settings: beagle, dog, plasma, male, 1.2 mg/kg IV infusion, Dose 1, read-out: Mean AUC(0-inf)
endpoint label: AUC(0-inf) (ng·h/mL)
The answer is to be given in ng·h/mL; state only the numeric part.

What value of measured AUC(0-inf) is listed for CN1CCCC1CCNC(=O)c1cn2c3c(c(N4CCC(c5cnccn5)C4)c(F)cc3c1=O)Oc1cc3ccccc3cc1-2 (stereo not shown) [CX-3543] ?
317

---

Recorded IC50 values for a group of compounds are listed next.
Tested on: HeLa cells
Experiment: MTS cell proliferation and/or cytotoxicity assay
Format: cell-based, Human
Settings: Homo sapiens, HeLa, 72 h, concentration at which 50% of antiproliferative cell response is seen; 3 days incubation; read-out: MTS Data Hella
Text: Cell culture. Human cervical epithelial cells (HeLa cells) were obtained from American Type Culture Collection (Manassas, Va.). […] MTS assays. […] The absorbance was read at 490 nm using FLUOstar Galaxy 96 well plate reader (BMG Labtechnologies, Germany). μM concentrations (MTS data) reported in Table 1 are concentrations at which 50% of antiproliferative cell response is seen.

# example entries with known answers
[[record]]
compound = "CN1CCCC1CCNc1c(F)cc2c(=O)c(C(=O)NCCCN3CCOCC3)cn3c4cc5c(cc4oc1c23)c(=O)c1ccccc15 (stereo not drawn) [compound 523]"
endpoint_label = "IC50"
recorded_measurement = "1600 nM"

[[record]]
compound = "CC(=O)N[C@@H]1CCN(c2c(F)cc3c(=O)c(C(=O)NCCCCN(C)C)cn4c3c2Oc2cc3c(cc2-4)oc2ccccc23)C1 [compound 374]"
endpoint_label = "IC50"
recorded_measurement = "3300 nM"


Now for another entry.
Report IC50 for CN1CCCC1CCNC(=O)c1cn2c3cc4c(cc3oc3c(NCCN5CCCC5)c(F)cc(c1=O)c32)c(=O)c1ccccc14 (stereo not drawn) [compound 575] please.
2100 nM

---

Measured IC50 values are reported for all entries that follow.
molecular target: c-Myc template DNA (c-myc quadruplex); experiment: Quadruplex binding / stop assay (Taq polymerase arrest, capillary electrophoresis); conditions: read-out: Stop Data c-Myc μM; concentration at which 50% of the DNA was arrested (arrested:full-length 1:1)
Provide only the numeric value, understood in µM.

Sample records with IC50:
[[record]]
compound = "N[C@@H]1CCN(c2c(F)cc3c(=O)c(C(=O)NCCC4CCCN4)cn4c3c2Oc2cc3c(cc2-4)oc2ccccc23)C1 (stereo partly drawn)"
tested_target = "c-Myc template DNA (c-myc quadruplex)"
recorded_measurement = 0.25

[[record]]
compound = "CN1CCCC1CCNC(=O)c1cn2c3c(c(N4CCC(C(N)=O)CC4)c(F)cc3c1=O)Oc1cc3ccccc3cc1-2 (stereo not drawn)"
tested_target = "c-Myc template DNA (c-myc quadruplex)"
recorded_measurement = 1.75


What does the data say about its IC50? Entry: CN1CCN(CCCNc2c(F)cc3c(=O)c(C(=O)NCCC4CCCN4C)cn4c5cc6c(=O)c7ccccc7c(=O)c6cc5oc2c34)CC1 (stereo not drawn)
0.9
